protein stability index values, listed per item
B1: TRIM43 (parent)
chain: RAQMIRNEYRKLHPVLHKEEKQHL

# Variants of: B1
# EXPERIMENTAL_PROTOCOL: protein stability index of a GFP-peptide fusion (GPS, HEK-293T) (PSI 1-6); higher = more stable;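 also: lentivirally expressed fusions sorted by FACS into six bins by GFP to DsRed ratio, PSI derived from sequencing read proportions per bin multiplied by bin number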
# TEST_PARAMETERS: c terminus: a fixed tail appended
Just the number, please, no unit attached.

Before answering, review these 10 worked examples.
>>> experimental_value("R1H")
3.47
>>> experimental_value("E20Q")
2.76
>>> experimental_value("L24A")
3.59
>>> experimental_value("M4Y")
2.74
>>> experimental_value("Q3C")
2.68
>>> experimental_value("E20T")
2.83
>>> experimental_value("M4N")
3.45
>>> experimental_value("E19R")
2.93
>>> experimental_value("V15T")
3.13
>>> experimental_value("K18D")
3.45

query: Using the record for `Y9M` , report its protein stability index.
result: 3.97

query: Using the record for `Q22V` , report its protein stability index.
result: 2.64

query: Using the record for `E20P` , report its protein stability index.
result: 2.09

query: Using the record for `I5N` , report its protein stability index.
result: 4.04

query: Using the record for `N7Y` , report its protein stability index.
result: 2.74

query: Using the record for `Y9Q` , report its protein stability index.
result: 4.31

query: Using the record for `R10G` , report its protein stability index.
result: 3.26

query: Using the record for `A2E` , report its protein stability index.
result: 4.26

query: Using the record for `E20W` , report its protein stability index.
result: 1.66

query: Using the record for `K18G` , report its protein stability index.
result: 3.37

query: Using the record for `Q22H` , report its protein stability index.
result: 2.91

query: Using the record for `K11M` , report its protein stability index.
result: 3.35
